Molecular target: T1, Growth and Differentiation Factor 15 (GDF15) (UniProt Q99988 197-308, limits assumed)
T1 construct: also called MIC-1; MIC1
T1 sequence (looked up): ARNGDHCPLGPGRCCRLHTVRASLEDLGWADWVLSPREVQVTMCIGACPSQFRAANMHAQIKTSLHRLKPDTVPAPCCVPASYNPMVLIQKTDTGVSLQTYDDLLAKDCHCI
Assay: ELISA, peptide on streptavidin plate, ligand 100 ng/ml
Experimental: Biotinylated synthetic peptide fragments from CLPTM1 (JPT peptides, Germany) were immobilized in a streptavidin 96 well plate (#15500 Pierce) at 1 μM in PBS over night at +4° C. Plate was then washed 4 times in 300 μl PBS with 0.05% tween-20 (wash buffer). The plate was then blocked with PBS 1% BSA and 0.05% tween-20 (blocking buffer) for 1.5 hours at room temperature, then washed 4 times in wash buffer. […] OD 450-620 was measured in an ELISA reader.
Ends that are not written are not given here.
Measure name: ELISA OD450 (OD450)

>  <Binder>
SGDYYPIIYFNDYWNLQKDYYPINESLASLPLRVSFCPLS (also: biotinylated, site not given here, also called peptide 25; GT1) [CLPTM1 peptide fragment of SEQ ID NO: 32]

>  <ELISA OD450 / OD450>
0.779

$$$$
>  <Binder>
SGQVTSNGSIGRDPPAETQPG (also: biotinylated, site not given here) [CLPTM1 peptide fragment of SEQ ID NO: 9]

>  <ELISA OD450 / OD450>
0.009

$$$$

1. TKSGFHPDPRQKALYRRLATVHMSRMINKYKRRRFQKTKN (also: biotinylated, site not given here, also called peptide 30; GT6) [CLPTM1 peptide fragment of SEQ ID NO: 37]
2. SGDYYPIIYFNDYWNLQKDYYPINESLA (also: biotinylated, site not given here, also called peptide 33; GT9) [CLPTM1 peptide fragment of SEQ ID NO: 40]
3. LMNLHVYISEHEHFTDFNATG (also: biotinylated, site not given here) [CLPTM1 peptide fragment of SEQ ID NO: 13]
[Q] Sort low-to-high on ELISA OD450, please. Show the ranking through the labels, in the order asked for.
[A] 3, 1, 2
(3: 0.058 OD450, 1: 0.209 OD450, 2: 0.518 OD450)

I. ITINIVDDHTPWVKGSVPPPG (also: biotinylated, site not given here) [CLPTM1 peptide fragment of SEQ ID NO: 20]
II. NDYWNLQKDYYPINESLASLG (also: biotinylated, site not given here) [CLPTM1 peptide fragment of SEQ ID NO: 22]
III. DTLMNLHVYISEHEHFTDFNATSALFWEQHDLVYGDWTSG (also: biotinylated, site not given here, also called peptide 29; GT5) [CLPTM1 peptide fragment of SEQ ID NO: 36]
IV. RNLFPKDTLMNLHVYISEHEG (also: biotinylated, site not given here) [CLPTM1 peptide fragment of SEQ ID NO: 30]
[Q] # sort list by recorded ELISA OD450, greatest to least Rank them, then answer with their labels in that order.
[A] III, I, IV, II
(III: 0.174 OD450, I: 0.098 OD450, IV: 0.055 OD450, II: 0.038 OD450)

1. MIKRAEDYGPVEVISHWHPNG (also: biotinylated, site not given here) [CLPTM1 peptide fragment of SEQ ID NO: 19]
2. KALYRRLATVHMSRMINKYKG (also: biotinylated, site not given here, also called peptide 10) [CLPTM1 peptide fragment of SEQ ID NO: 17]
3. FTDFNATSALFWEQHDLVYGG (also: biotinylated, site not given here) [CLPTM1 peptide fragment of SEQ ID NO: 31]
[Q] // smallest ELISA OD450 at index 0, largest at the end Show the ranking through the labels, in the order asked for.
[A] 1, 3, 2
(1: 0.028 OD450, 3: 0.061 OD450, 2: 0.197 OD450)
